Entries annotated with measured IC50
# tgt: Acetylcholinesterase (Homo sapiens, UniProt P22303)
# Sequence (P22303 whole entry): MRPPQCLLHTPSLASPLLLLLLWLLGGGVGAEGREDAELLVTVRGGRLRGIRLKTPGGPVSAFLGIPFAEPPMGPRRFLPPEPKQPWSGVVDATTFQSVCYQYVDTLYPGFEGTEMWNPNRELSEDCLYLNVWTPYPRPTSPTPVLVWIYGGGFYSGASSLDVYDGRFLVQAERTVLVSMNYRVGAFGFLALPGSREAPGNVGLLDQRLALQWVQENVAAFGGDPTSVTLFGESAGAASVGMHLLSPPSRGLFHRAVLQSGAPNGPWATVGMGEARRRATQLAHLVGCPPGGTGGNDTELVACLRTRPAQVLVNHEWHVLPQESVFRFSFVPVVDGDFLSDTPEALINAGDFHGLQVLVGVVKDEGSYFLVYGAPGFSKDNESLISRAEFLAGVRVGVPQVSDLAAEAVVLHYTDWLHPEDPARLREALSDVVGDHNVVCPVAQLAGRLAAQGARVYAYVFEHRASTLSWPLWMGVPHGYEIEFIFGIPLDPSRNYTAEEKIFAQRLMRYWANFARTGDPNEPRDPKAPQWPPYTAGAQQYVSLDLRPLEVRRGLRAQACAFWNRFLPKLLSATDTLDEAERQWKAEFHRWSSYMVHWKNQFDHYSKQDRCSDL

chemical.string: COc1cc(-c2cc(-c3ccc(Br)cc3)nc3[nH]nc(N)c23)cc(OC)c1OC
tgt: Acetylcholinesterase (Homo sapiens, UniProt P22303)
endpoint.unit: nM
IC50: 630
//
chemical.string: Nc1n[nH]c2nc(-c3ccc(Br)cc3)cc(-c3ccc(Br)cc3)c12
tgt: Acetylcholinesterase (Homo sapiens, UniProt P22303)
endpoint.unit: nM
IC50: 170
//
chemical.string: COc1ccc(-c2cc(-c3ccccc3)nc3[nH]nc(N)c23)cc1OC
tgt: Acetylcholinesterase (Homo sapiens, UniProt P22303)
endpoint.unit: nM
IC50: 9630
